The origin of these recorded values is patent US10752587B2.

Biological target: glutathione-S-transferase (GST) tagged LXRbeta LBD (ligand binding domain) (Homo sapiens, UniProt P55055)
Construct: purchased Invitrogen pv4658.pps
Sequence (P55055 222-460 limits assumed): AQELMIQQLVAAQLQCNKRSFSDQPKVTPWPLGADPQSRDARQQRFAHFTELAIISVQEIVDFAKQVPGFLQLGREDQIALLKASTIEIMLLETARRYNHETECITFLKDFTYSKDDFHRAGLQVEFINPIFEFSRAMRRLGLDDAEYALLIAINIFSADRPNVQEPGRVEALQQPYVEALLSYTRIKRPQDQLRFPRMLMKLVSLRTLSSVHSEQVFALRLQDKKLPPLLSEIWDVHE
Experiment: LanthaScreen TR-FRET Liver X Receptor Coactivator Assay, co-activator recruitment to LXRbeta LBD
Assay type: biochemical
Conditions: potency (Inflection Point, IP), co-activator recruitment to LXRbeta LBD, in relation to T0901317; read-out: LXR beta IP
pEC50: −log10 of the molar value.
measured.parameter: pEC50

(a) CN(C)C(=O)c1ccc(N2CCC(CC3CCN(C(=O)[C@](O)(c4cccc(OC(F)(F)F)c4)C(F)(F)F)CC3)CC2)cc1Cl
(b) CCc1cccc([C@@](O)(C(=O)N2CCC(CC3CCN(c4ccc(C(N)=O)c(Cl)c4)CC3)CC2)C(F)(F)F)c1
Query block: Given the listed items, does a or b have the lesser reported pEC50? Answer with the label corresponding to your selection.
Result block: a

###

Biological target: glutathione-S-transferase (GST) tagged LXRalpha LBD (ligand binding domain) (Homo sapiens)
Construct: purchased Invitrogen pv4655
Sequence (Q13133 209-447 limits assumed): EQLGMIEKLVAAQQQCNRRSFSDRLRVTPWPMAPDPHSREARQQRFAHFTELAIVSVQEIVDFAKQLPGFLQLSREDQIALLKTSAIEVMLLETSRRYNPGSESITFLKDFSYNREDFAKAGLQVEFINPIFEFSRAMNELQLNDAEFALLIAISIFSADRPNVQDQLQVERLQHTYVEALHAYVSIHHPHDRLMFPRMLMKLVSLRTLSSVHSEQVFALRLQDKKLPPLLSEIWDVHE
Test: LanthaScreen TR-FRET Liver X Receptor Coactivator Assay, co-activator recruitment to LXRalpha LBD
Format: biochemical
Details: potency (Inflection Point, IP), co-activator recruitment to LXRalpha LBD, in relation to T0901317; read-out: LXR alpha IP
pEC50: −log10 of the molar value.
measured.parameter: pEC50

compound	pEC50
CCc1cccc([C@@](O)(C(=O)N2CC(CC3CCN(c4ccc(C(=O)N(C)C)c(Cl)c4)CC3)C2)C(F)(F)F)c1	5.97
CNC(=O)c1ccc(N2CCC(CC3CCN(C(=O)[C@](O)(c4cccc(Br)c4)C(F)(F)F)CC3)CC2)cc1Cl	6.74
CNC(=O)c1ccc(N2CCC(OC3CCN(C(=O)C(O)(c4cccc(Cl)c4)C(F)(F)F)CC3)CC2)cc1Cl (stereo not shown)	5.80
CN(C)C(=O)c1ccc(N2CCC(CC3CCN(C(=O)C(O)(c4ccsc4)C(F)(F)F)CC3)CC2)cc1Cl (stereo not shown)	6.09
CN(C)C(=O)c1ccc(N2CCC(CC3CCN(C(=O)[C@@](O)(c4cccc(Br)c4)C(F)(F)F)CC3)CC2)nc1Cl	5.99
CN(C)C(=O)c1ccc(N2CCC(CC3CCN(C(=O)[C@](O)(c4ccccc4)C(F)(F)C(F)(F)F)CC3)CC2)cc1Cl	6.75
CN(C)C(=O)c1ccc(N2CCC(CC3CCN(C(=O)C(O)(c4cc(F)cc(F)c4)C(F)(F)F)CC3)CC2)nc1Cl (stereo not shown)	6.97
COc1cccc([C@@](O)(C(=O)N2CCC(CC3CCN(c4ccc(C(=O)N(C)C)c(Cl)c4)CC3)CC2)C(F)(F)C(F)(F)F)c1	6.52

(a) Cc1cc(F)cc(C(O)(C(=O)N2CCC(CC3CCN(c4ccc(C(=O)N(C)C)c(Cl)c4)CC3)CC2)C(F)(F)F)c1 (stereo not shown)
(b) NC(=O)c1ccc(N2CCC(CC3CCN(C(=O)[C@](O)(c4ccccc4)C(F)(F)F)CC3)CC2)cc1Cl
Query block: Please indicate which item has the smaller measured pEC50: a versus b Refer to your chosen entry by its label in the reply.
Result block: a

###

Biological target: glutathione-S-transferase (GST) tagged LXRbeta LBD (ligand binding domain) (Homo sapiens, UniProt P55055)
Construct: purchased Invitrogen pv4658.pps
Experiment: LanthaScreen TR-FRET Liver X Receptor Coactivator Assay, co-activator recruitment to LXRbeta LBD
Assay type: biochemical
Conditions: potency (Inflection Point, IP), co-activator recruitment to LXRbeta LBD, in relation to T0901317; read-out: LXR beta IP
pEC50: −log10 of the molar value.
measured.parameter: pEC50

Solved cases below.
molecule	pEC50
CC[C@](O)(C(=O)N1CCC(CC2CCN(c3ccc(C(=O)N(C)C)c(Cl)c3)CC2)CC1)c1ccccc1	7.27
CN(C)C(=O)c1ccc(N2CCC(CC3CCN(C(=O)C4(c5ccccc5)CCC4)CC3)CC2)cc1Cl	6.82
Cc1cc(N2CCC(CC3CCN(C(=O)OC(C)(C)C)CC3)CC2)ccc1C(=O)N(C)C	6.62
CNC(=O)c1ccc(N2CCC(CC3CCN(C(=O)[C@](O)(c4cc(Cl)cc(OC)c4)C(F)(F)F)CC3)CC2)cc1Cl	7.60
COc1cc(Cl)cc(C(O)(C(=O)N2CCC(CC3CCN(c4ccc(C(=O)N(C)C)c(Cl)n4)CC3)CC2)C(F)(F)F)c1 (stereo not shown)	7.12

(A) CNC(=O)c1ccc(N2CCC(OC3CCN(C(=O)C(O)(c4cccc(F)c4)C(F)(F)F)CC3)CC2)cc1Cl (stereo not shown)
(B) O=C(c1ccc(N2CCC(OC3CCN(C(=O)[C@](O)(c4ccccc4)C(F)(F)F)CC3)CC2)cc1Cl)N1CCC[C@H]1CO
Query block: Which is greater in pEC50, the first item A or the second item B ? Lab note: record the label of whichever item you select.
Result block: B
